B1: library; a variant is named by its letters at N, in order (parent)
chain: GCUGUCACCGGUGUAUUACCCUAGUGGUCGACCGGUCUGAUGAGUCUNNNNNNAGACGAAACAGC

variants of: B1; assay: normalized RNA/DNA level with ligand (relative to sTRSVctl = 100) (log10 (% of sTRSVctl)); ligand: hypoxanthine (xanthine aptamer); higher = less ribozyme self-cleavage, higher mRNA level; details: ligand concentration (+) RNA-Seq: 5 mM, HEK293T, reporter: mCherry (pCS4076), ligand present: yes
value_kind: normalized RNA/DNA level with ligand (log10)
Lab note: jot the number down without any unit.

Recorded normalized RNA/DNA level with ligand (log10), per entry:
{"change": "AGCCUG", "measured_number": 1.92}
{"change": "AGGUGG", "measured_number": 1.83}
{"change": "AGCCGU", "measured_number": 1.92}
{"change": "GUUCCG", "measured_number": 1.94}
{"change": "AGCAGU", "measured_number": 1.83}

Now for a further variant.
Data request, read-out normalized RNA/DNA level with ligand (log10), for CCCACA
1.99
